# Tested on: Leishmania donovani
# runDescription: Leishmania intramacrophage assay
# Assay type: functional, organism-based
# Set-up: scale not given: in the data most compounds retested in dose-response had high values
# experimentalConditions: 30.3 µM; […]
Among all 69,000 compounds or so, about 1,000 (1.4%) showed an effect of 50% or more. The full list was thinned out, with strong results kept by preference.
assayEndpoint: Percent Effect (%)
// note: answer is a bare numeric in %

Report Percent Effect for c1ccc(C2CN(C3CC3)CC3(CCN(Cc4ncc[nH]4)CC3)C2)cc1 (stereo not drawn) please.
51.92

# Percent Effect lookup, item CNc1cc(C)nc(N2C[C@H](C3CC3)[C@@H](N)C2)n1
66.39

Fill in: Percent Effect of CC1CN(C(=O)C2(c3cccc(F)c3)CCOCC2)CCO1 (stereo not drawn) is ___
18.33

// query Percent Effect value for entry CNc1cc(C)nc(N2C[C@H](NC(=O)C3CCOCC3)[C@@H](C3CC3)C2)n1
-19.84

Value lookup for Percent Effect; key = CNc1cc(C)nc(N2C[C@@H](C(=O)O)[C@H](C3CC3)C2)n1
1.34

I am curious: what Percent Effect value has been reported for N[C@H]1CN(Cc2cnc(N3CCCC3)nc2)C[C@@H]1C1CC1 ?
17.06

Others:
# get_value(readout='Percent Effect', item= Cc1cnc(NCCCN2CCc3ccccc32)nc1 )
21.16

What value of Percent Effect has been reported for the following compound? Cc1cc(N2C[C@H](C3CC3)[C@@H](N)C2)nc(N2CCCCC2)n1
55.81

Which Percent Effect value is on record for Cc1oc(C)c(C(=O)Nc2ccccn2)c1C ?
0.1995

Quick one: Percent Effect of CCCn1nc(C)c(C(=O)N(C)[C@@H]2CC[C@@H](OC)[C@@H]2O)c1C ?
19.04

Fill in the blank: the reported Percent Effect of Nc1ncc(C(=O)N2CCN(c3nccs3)CC2)cc1Cl is ____.
-4.984

Fill in the blank: the reported Percent Effect of CCC(CC)(CCO)CNC(=O)c1ccon1 is ____.
7.917

Sample CN1CC(c2ccccc2)CC2(CCN(Cc3ncc[nH]3)CC2)C1 (stereo not drawn) — what was its Percent Effect?
16.63

What value of measured Percent Effect is listed for O=C(O)C(F)(F)F.O=C(O)[C@]12CCCN(C3CCOC3)C[C@H]1CN(c1nncs1)C2 (stereo partly drawn) ?
23.22

###

# System: Leishmania donovani
# runDescription: Leishmania intramacrophage assay
# Assay type: functional, organism-based
# Parameters: scale not given: in the data most compounds retested in dose-response had high values
# experimentalConditions: 30.3 µM; […]
In all, about 69,000 compounds went through this assay and about 1,000 (1.4%) showed an effect of 50% or more. The sample holds strong results, similar compounds and a random draw of the others, so the mix is not that of the screen.
Percent Effect overview
Param answer (str): number followed by unit.

Return reported Percent Effect; argument: CN1CCN(c2ccccc2NC(=O)c2ccco2)CC1
13.32%

Please report the recorded Percent Effect for CC(O)CN1CCC(CNCc2cccc(C(F)(F)F)c2)CC1 (configuration not stated) .
35.92%

###

Entries and their Percent Effect values follow.
# Test system: Leishmania donovani
# runDescription: Leishmania intramacrophage assay
# Assay type: functional, organism-based
# Set-up: scale not given: in the data most compounds retested in dose-response had high values
# experimentalConditions: 30.3 µM; […]
The campaign covered roughly 69,000 compounds. About 1,000 (1.4%) showed an effect of 50% or more. What follows is part of a selection rich in strong results, with near analogues and random picks from the rest.
Reply numerically in %, unit not repeated.

Completed entries (count: 2):
# lookup: Percent Effect of CCS(=O)(=O)N1CCOC2(CCCN(c3cnccn3)C2)C1.O=C(O)C(F)(F)F (stereo not drawn)
26.09

Recorded Percent Effect of CNC(=O)Cc1ccc(NC(=O)NC2(c3cccc(F)c3)CC2)cc1 , please.
15.99

Further cases:
Data request, read-out Percent Effect, for Cc1noc(C(C)N2CCN(c3ncnc4sccc34)CC2)n1 (stereo not drawn)
61.64

Measured values drawn from ChEMBL document CHEMBL3988442 for this set.
